- tested.target: T1, human Siglec-5 expressed on human primary cells (human, UniProt O15389 17-551)
- T1 construct: Endogenous receptor on human primary monocytes, dendritic cells, macrophages and neutrophils; also called CD170
- T1 sequence: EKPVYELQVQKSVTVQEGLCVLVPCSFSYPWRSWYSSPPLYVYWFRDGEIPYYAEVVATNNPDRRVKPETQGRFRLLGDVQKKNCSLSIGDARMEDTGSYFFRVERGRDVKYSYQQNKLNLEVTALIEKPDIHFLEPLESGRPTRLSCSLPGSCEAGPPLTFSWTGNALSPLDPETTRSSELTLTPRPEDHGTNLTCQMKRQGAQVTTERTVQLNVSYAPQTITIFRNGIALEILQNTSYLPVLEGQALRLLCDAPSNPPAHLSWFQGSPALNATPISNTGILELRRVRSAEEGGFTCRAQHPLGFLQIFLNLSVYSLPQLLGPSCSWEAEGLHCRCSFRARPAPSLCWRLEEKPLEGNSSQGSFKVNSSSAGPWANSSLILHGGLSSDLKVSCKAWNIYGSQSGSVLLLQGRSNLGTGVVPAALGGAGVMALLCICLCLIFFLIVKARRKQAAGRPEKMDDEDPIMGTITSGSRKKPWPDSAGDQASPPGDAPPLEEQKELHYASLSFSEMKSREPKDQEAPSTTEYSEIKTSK
- protocol.notes: flow cytometry, human primary dendritic cells, 10 ug/ml mAb
Sorting guide: entries reporting MFI beneath 500 go in the Fulfilled pile, the rest go in the Not fulfilled pile.

binder: anti-Siglec-5 monoclonal antibody 2G5 (antibody, IgG1, V domains shown) VH: EIQLQQSGPELVKPGASVKVSCKASGYSFTDYNMYWVKQSHGKSLEWIGYIDPYNGNTTYNQRFKGKATLTVDKSSSTAFMHLNSLTSEDAAVYYCATFYGFDGFAYWGQGSLVAVSA VL: QAVVTQESALTTSPGETVTLTCRSSTGAVTTSNYANWVQEKPDHLFTGLIGTTNNRAPGVPARFSGSLIGDKAALTITGAQTEDEAIYFCALWYSNHLVFGGGTKLTVLG
class.name: Fulfilled
//
binder: anti-Siglec-5 monoclonal antibody 7A5 (antibody, IgG1, V domains shown) VH: EIQLQQSGPELVKPGASVKVSCKASGYSFTDYNMYWVKQSHGKSLEWIGYIDPYNGGTTYNQKFKGKATLTVDKSSSTAFMHLNSLTSEDSAVFYCAFYYGYYGVPYWGQGTLVTVSA VL: DIVMIQSQKFMSTSVGDRVSVTCKASQNVDTNVAWYQQKPGQSPKALIYSASYRYSGVPDRFTGSGSGTDFTLTISNVQSEDLAEYFCQQYNSFPLTFGSGTKLEIK
class.name: Fulfilled
//
binder: anti-Siglec-5 monoclonal antibody 11C6 (antibody, IgG1, V domains shown, also called 1106) VH: QVQLQQSGAELVKPGASVKLSCKASGYTFTEYTIHWVKQRSGQGLEWIGWFYPGSGSIKYNEKFKDKATLTAVKSSSTVYMEFSRLTSEDSAVYFCARQDYDGLGFAYWGQGTLVTVSA VL: DVLMTQTPLSLPVSLGDQASISCRSSQTIVHSNGNTYLEWYLQKPGQSPKLLIYKVSNRFSGVPDRFSGSGSGTDFTLKISRVEAEDLGVYYCFQGSHVPWTFGGGTKLEIK
class.name: Fulfilled
//
binder: anti-Siglec-5 monoclonal antibody 9A5 (antibody, IgG1, V domains shown) VH: QVQLQQSGPELVEPGASVKVSCKASGYAFTSYNMYWVKQSHGKSLEWIGYIDPYNGGTYYDQKFKGRATLTVDKSSSTAHMHLNSLTSEDSAVYYCVFFYEYDGFPYWGQGTLVTVSA VL: DIVLTQSPTLMSASPGEKVTMTCSASSSVSYMYWYQQKPRSSPKPLIYLTSNLASGVPARFSGSGSGTSYSLTISSMEAEDAATYYCQQWSSNPLTFGAGTKLELK
class.name: Not fulfilled

QUERY: Bench note: check whether anti-Siglec-5 monoclonal antibody 9B1 (antibody, IgG1, V domains shown) VH: QVQLQQSGAELVKPGASVKLSCKASGYTFTEYTIHWVKQRSGQGLEWIGWFYPGSGSIKYNEKFKDKATLTADKSSSTVYMELSRLTSEDSAVYFCARQEEGGIGFDYWGQGTTLTVSS VL: DVLMTQTPLSLLVSLGDQASISCRSSQSIVHSNGNTYLEWYLQKPGQSPKLLIYKVSIRFSGVPDRFSGSGSGTDFTLKISRVEAEDLGVYYCFQGSHVPWTFGGGTKLEIK shows MFI below 500
RESULT: Not fulfilled
